The values you see were collected from ChEMBL document CHEMBL4196088.

Property: Activity; scope: individual compounds
- Tested on: PANC-1
- RUN_DESCRIPTION: Induction of apoptosis in human PANC1 cells assessed as accumulation at sub-G0/G1 phase at 20 uM after 72 hrs by propidium iodide staining based flow cytometry (reference value: 1.6 to 3.2%)
- Format: functional
Provide the reading as a plain figure in %.

Examples from the recorded data:
COMPOUND: CCCCCCCC/C=C\CCCCCCCCOC[C@@H]1CCCN1C(=O)[C@@H]1CCCN1.Cl
Activity [%]: 74.9

COMPOUND: CCCCCC/C=C/CCCCCCCCOC[C@H]1NC[C@H](O)[C@@H]1O
Activity [%]: 33.7

COMPOUND: CCCCCC/C=C\CCCCCCCCOC[C@H]1NC[C@H](O)[C@@H]1O
Activity [%]: 27.1

COMPOUND: CCCCCCCC/C=C\CCCCCCCCOC[C@@H]1CCCN1.Cl
Activity [%]: 14.1

COMPOUND: Cl.NCC(=O)N1CCC[C@H]1COCCCCCC/C=C/c1ccc(-c2ccccc2)cc1
Activity [%]: 24.7

The reported value for CCCCCCCC/C=C\CCCCCCCCOCC[C@H]1NC[C@H](O)[C@@H]1O in terms of Activity is 22.6

The reported value for Cl.NCC(=O)N1CCC[C@H]1COCCCCCCCCC/C=C/c1ccc(-c2ccccc2)cc1 in terms of Activity is 30.5

The reported value for CCCCCCCC/C=C\CCCCCCCCOC[C@@H]1CCCN1C(=O)CN.Cl in terms of Activity is 50.3

The reported value for O[C@H]1[C@@H](O)CN[C@@H]1COCCCCCCCC/C=C/c1ccc(Oc2ccccc2)cc1 in terms of Activity is 29.3

The reported value for Cl.O[C@H]1CN[C@H](COCCCCCC/C=C/c2ccc(-c3ccccc3)cc2)C1 in terms of Activity is 54.2

The reported value for C(=C\c1ccc(-c2ccccc2)cc1)/CCCCCCCCOC[C@@H]1CCCN1.Cl in terms of Activity is 10.6

The reported value for C(=C\c1ccc(-c2ccccc2)cc1)/CCCCCCCCCOC[C@@H]1CCCN1.Cl in terms of Activity is 11.6

The reported value for Cl.O[C@H]1CN[C@H](COCCCCCCCCC/C=C/c2ccc(Oc3ccccc3)cc2)C1 in terms of Activity is 56.1

---

Property: Activity; scope: individual compounds
- Test system: PK9
- RUN_DESCRIPTION: Induction of apoptosis in human PK9 cells assessed as accumulation at sub-G0/G1 phase at 10 uM after 24 hrs by propidium iodide staining based flow cytometry (reference value: 2.2%)
- Assay type: functional
Provide the reading as a plain figure in %.

COMPOUND: O[C@H]1[C@@H](O)CN[C@@H]1COCCCCCCCC/C=C/c1ccc(Oc2ccccc2)cc1
SYSTEM_TESTED: PK9
Activity [%]: 3.4

Let us move to another entry and its Activity.
The reported value for CCCCCCCCCCCCCCCCCCOCC(COP(=O)([O-])OCC[N+](C)(C)C)OC (stereo not given) [EDELFOSINE] in terms of Activity is 3.8

---

- Test system: Fibroblast
- RUN_DESCRIPTION: Induction of apoptosis in human primary fibroblasts at 20 uM after 72 hrs by propidium iodide staining based flow cytometry (reference value: 6.7%)
- Format: cell-based
MEASURED_QUANTITY: Activity (%)
Provide the reading as a plain figure in %.

Examples from the recorded data:
COMPOUND: Cl.O[C@H]1CN[C@H](COCCCCCCCCC/C=C/c2ccc(-c3ccccc3)cc2)C1
Activity (%): 33.7
//
COMPOUND: CCCCCC/C=C\CCCCCCCCOC[C@H]1NC[C@H](O)[C@@H]1O
Activity (%): 18.7
//
COMPOUND: CCCCCCCCCCCCCCCCCCOCC(COP(=O)([O-])OCC[N+](C)(C)C)OC (stereo unspecified) [EDELFOSINE]
Activity (%): 9.8
//
COMPOUND: Cl.O[C@H]1CN[C@H](COCCCCCCCCC/C=C/c2ccc(Oc3ccccc3)cc2)C1
Activity (%): 82.1
//
COMPOUND: Cl.O[C@H]1CN[C@H](COCCCCCCCC/C=C/c2ccc(Oc3ccccc3)cc2)C1
Activity (%): 72.7

The reported value for Cl.O[C@H]1CN[C@H](COCCCCCC/C=C/c2ccc(-c3ccccc3)cc2)C1 in terms of Activity is 73.7
